# Test Details: Plasma protein binding (RED), mouse
# Type: in vitro ADME
# Run Conditions: pH 7.4, 10 μM, read-out: Plasma Protein Binding (% Bound) Mouse
# Description: TEFLON Base Plate wells were rinsed with 20% ethanol for 10 minutes. Ethanol was then removed and wells were rinsed with ultrapure water and allowed to dry. […] The amount of compound in the supernatant was determined by LC/MS/MS (Applied Biosystems, Sciex API4000 Q-Trap). The percent of free and bound compounds were calculated with the following formula: % of bound parent compound=[(amount of compound in donor-receiver/amount of compound in donor)×100]. […]
Experimental Endpoint: fraction unbound at 4 h, 10 μM

> print(dat)
                                   compound  numeric.readout
1  Cc1ccc2nc(-c3ccc4nc(-c5ccc(NC(=O)c6cccc(Cl)c6)cc5)sc4c3)sc2c1S(=O)(=O)O [Compound 17]             0.01

----------
# Study System: HCV NS3 helicase NS3h_1b(con1) (Hepatitis C virus genotype 1b)
# Construct: truncated C-terminally His-tagged NS3 proteins lacking the N-terminal protease, called NS3h; His-tag (C); made in house
# Sequence (Q9WMX2 1192-1657): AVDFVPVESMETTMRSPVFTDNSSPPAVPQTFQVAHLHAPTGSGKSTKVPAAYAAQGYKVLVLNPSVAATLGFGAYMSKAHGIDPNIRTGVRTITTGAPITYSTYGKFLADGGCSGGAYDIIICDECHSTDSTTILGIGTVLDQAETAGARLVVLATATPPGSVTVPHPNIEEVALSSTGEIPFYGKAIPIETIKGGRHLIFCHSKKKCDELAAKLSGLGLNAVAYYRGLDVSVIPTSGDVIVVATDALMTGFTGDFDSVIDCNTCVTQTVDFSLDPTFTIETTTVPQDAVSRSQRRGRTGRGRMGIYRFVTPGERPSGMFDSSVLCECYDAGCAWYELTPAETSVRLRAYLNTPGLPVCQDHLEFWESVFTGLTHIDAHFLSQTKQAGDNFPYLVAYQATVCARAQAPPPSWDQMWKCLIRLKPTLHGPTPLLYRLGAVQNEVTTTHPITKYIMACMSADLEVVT
# Test Details: MBHA screen of NCI mechanistic set library at 20 μM (percent inhibition, compound interference)
# Type: biochemical
# Run Conditions: compounds at 20 μM, MBHA with DNA substrate; assay interference calculated with Equation 2
# Protocol: All molecular beacon-based helicase assays (MBHAs) were performed according to known methods (Belon & Frick (2008) supra; Belon & Frick (2009) supra). […] Fluorescence was read before ATP (F0) addition and 30 minutes after ATP was added to 1 mM (F30) using a Tecan Infinite M200 fluorescence microplate reader with excitation and emission wavelengths set to 643 and 670 nm, respectively. […]
Residues, ends and D or L forms follow the SMILES beside them. *: point of attachment. CH2Cl = ClC*
Could you label it satisfied if measured Int.* (Ratio) (Interference) is 0.9 Ratio or higher, and not satisfied otherwise?

Compound	Assigned Category
Cc1ccc2c(ccc(C=Cc3ccc(O)c4ncccc34)[n+]2C)c1	not satisfied
CC(=O)[O][Pb]([O]C(C)=O)([c]1ccccc1)[c]1ccccc1	satisfied
O=c1[nH]c2ccccc2n1C1CCN(CCCC(c2ccc(F)cc2)c2ccc(F)cc2)CC1	satisfied
CC(=O)NC(CC(C)C)C(=O)NC(Cc1ccccc1)C(=O)CCl (stereo not drawn) [Compound 173905] (Ac-Leu-Phe-CH2Cl; configuration not given here)	satisfied
COc1cc(C(O)CCBr)c(OC)cc1C (stereo not shown)	satisfied
Cc1cc(N(C)C)ccc1N=Nc1ccc2ncccc2c1	satisfied
COC(=O)C1CCC(=O)N1C(c1ccc(OC)cc1)c1cc(OC)c(OC)c(OC)c1 (stereo not shown)	satisfied
NC(=O)OCc1c(O)c2c(c(O)c1COC(N)=O)C(=O)C=CC2=O	satisfied
COc1ccc(-c2cc(=O)c3c(OC)c(OC)c(OC)cc3o2)cc1	not satisfied
O=C1c2ccccc2C(=O)c2c(O)c(O)cc(O)c21	satisfied
O=C(c1ccccc1)C(c1ccccc1)C1(O)C(=O)Nc2c(Cl)cc(Cl)cc21 (stereo not shown)	satisfied
COc1cc(C[C@H]2c3cc(OC)c(OC)cc3CCN2C)c(Oc2cc3c(cc2OC)-c2c(OC)c(OC)cc4c2[C@H](C3)N(C)CC4)cc1OC	satisfied
CCN1CCC(O)(/C=C/c2ccc(C)cc2)C(C(=O)/C=C/c2ccc(C)cc2)C1.Cl (stereo not shown)	satisfied
CC1(C)C(O)OC(O)C1(C)C (stereo not shown)	satisfied
COC(=O)c1[nH]c(=S)[nH]c(=O)c1-c1ccc(Cl)cc1	satisfied
Cc1nc(C(N)=S)sc1C(=O)CC(=O)C(=O)Nc1c(C(C)C)cccc1C(C)C	satisfied
N#CC1CC(c2ccccc2)Nc2cc(Cl)ccc2N1 (stereo not shown)	satisfied
O=Cc1cc([N+](=O)[O-])no1	satisfied
O=[n+]1c2c(n([O-])c3ccccc31)-c1cccc3cccc-2c13	satisfied
[Cl][Cd][Cl]	satisfied
C(=C/c1nc2ccccc2o1)/c1ccc2c(c1)OCO2	satisfied
CC(C)(C)[Si](C)(C)OCC1CCC(n2cnc3c(N)ncnc32)O1 (stereo not shown)	satisfied
Cl.O=C1C=CC(=O)c2c(O)c(N3CCN(CCOCCO)CC3)c(Br)c(O)c21	not satisfied
Cc1cc2c(cc1C)[n+](=O)c(C(=O)/C=C/c1ccccc1[N+](=O)[O-])c(C)n2[O-]	satisfied
O=C1OC(c2ccccc2)=N/C1=C\c1ccc(N(CCCl)CCCl)cc1	satisfied
CN(CCc1ccccn1)c1ccc2c(c1)C(=O)c1ccccc1-2	satisfied
NC(=O)c1c([N+](=O)[O-])cc(C(F)(F)F)cc1[N+](=O)[O-]	satisfied
CCN(CC)CCNc1ccc2nc(C)n3c4ccc(OC)cc4c(=O)c1c23.Cl	not satisfied
O=Nc1ccc(O)c2ncccc12	satisfied
BrC(/C=N/Nc1nnc(-c2ccccc2)c(-c2ccccc2)n1)C(Br)c1ccccc1 (stereo not shown)	satisfied
CCCCCC(/C=C/[C@@H]1CC(=O)C[C@H]1O[Si](C)(C)C(C)(C)C)OCOCCOC (stereo partly shown)	satisfied
CN(C)c1ccc(C=c2c3ccccc3n3c2cc(-c2ccc(Cl)cc2)[n+]3C)cc1.O=S(=O)([O-])C(F)(F)F	not satisfied
